B1: Tyrosine-protein kinase BTK, residues 215 to 273; numbered along this chain, Q06187 (parent)
chain: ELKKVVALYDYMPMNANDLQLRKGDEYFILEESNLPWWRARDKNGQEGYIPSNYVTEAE

variants of: B1; experiment: abundance fitness (aPCA) (normalised: wild type 0, dead -1); higher = more abundant; growth selection in yeast, the domain comes from the species named; conditions: Homo sapiens
Kindly supply the reported abundance fitness values for the records listed here.
Give bare numbers.

Reference set, count: 3
- alteration: "F28D"
  readout.value: -0.018
- alteration: "S33Q"
  readout.value: 0.016
- alteration: "S33V"
  readout.value: -0.054

Working through the 3 variants below one at a time, give abundance fitness for each.
1. R22Y
2. L30F
3. D42K

0
-0.038
-0.575

Working through the 7 variants below one at a time, give abundance fitness for each.
1. L21Q
2. S33L
3. E47L
4. D18P
5. S52N
6. F28M
7. P36C

[-0.754, -0.06, -0.163, -0.469, -0.026, 0.017, -0.072]

Working through the 2 variants below one at a time, give abundance fitness for each.
1. V55E
2. F28K

[-0.617, -0.141]

Working through the 4 variants below one at a time, give abundance fitness for each.
1. A40T
2. A58Y
3. P36N
4. L30V

1: -0.456; 2: -0.016; 3: -0.075; 4: -0.015
